target: IRAK4 (Homo sapiens); assay: PBMC degradation assay (western blot, % IRAK4 degraded after 4 hours); assay type: cell-based; conditions: human PBMCs

Compound: NC(=O)c1nn(-c2ccc(C(=O)NCCCOCCCNc3cccc4c3C(=O)N(C3CCC(=O)NC3=O)C4=O)cc2)cc1NC(=O)c1coc(-c2ccnc(NCC(F)(F)F)c2)n1 (stereo not drawn)
Test system: IRAK4 (Homo sapiens)
PBMC % IRAK4 Degradation: A (>50% degradation)

Compound: NC(=O)c1nn(-c2ccc(C(=O)NCCCCCNCCNc3cccc4c3C(=O)N(C3CCC(=O)NC3=O)C4=O)cc2)cc1NC(=O)c1coc(-c2ccnc(NCC(F)(F)F)c2)n1 (stereo not drawn)
Test system: IRAK4 (Homo sapiens)
PBMC % IRAK4 Degradation: A (>50% degradation)

Compound: NC(=O)c1nn(-c2ccc(C(=O)NCCOCCOCCOCCOCCNc3cccc4c3C(=O)N(C3CCC(=O)NC3=O)C4=O)cc2)cc1NC(=O)c1coc(-c2ccnc(NCC(F)(F)F)c2)n1 (stereo not drawn)
Test system: IRAK4 (Homo sapiens)
PBMC % IRAK4 Degradation: A (>50% degradation)

----------
assay: Pharmacokinetics in Sprague Dawley rats (plasma and brain concentrations, PK parameters); type: in vivo; settings: Sprague Dawley, rat, plasma, po, 10 mg/kg, Sprague Dawley rat, po 10 mg/kg, plasma, 0.5 h, mean of 3 rats; read-out: Concentration Mean
Value kind: concentration at 0.5 h (ng/mL)

Compound: O=C1CCC(N2C(=O)c3cccc(NCCOCCOCCNCc4ccc(-n5cc(NC(=O)c6coc(-c7ccnc(NCC8CC8)c7)n6)c(C(F)F)n5)cc4)c3C2=O)C(=O)N1 (stereo not shown)
Val: 0.552

----------
molecular target: IRAK4 (Homo sapiens, UniProt Q9NWZ3); test: THP-1 degradation assay (western blot, % IRAK4 degraded after 24 hours); type: cell-based; set-up: endogenous in cells; conditions: THP-1 cells
Sequence (Q9NWZ3 whole entry): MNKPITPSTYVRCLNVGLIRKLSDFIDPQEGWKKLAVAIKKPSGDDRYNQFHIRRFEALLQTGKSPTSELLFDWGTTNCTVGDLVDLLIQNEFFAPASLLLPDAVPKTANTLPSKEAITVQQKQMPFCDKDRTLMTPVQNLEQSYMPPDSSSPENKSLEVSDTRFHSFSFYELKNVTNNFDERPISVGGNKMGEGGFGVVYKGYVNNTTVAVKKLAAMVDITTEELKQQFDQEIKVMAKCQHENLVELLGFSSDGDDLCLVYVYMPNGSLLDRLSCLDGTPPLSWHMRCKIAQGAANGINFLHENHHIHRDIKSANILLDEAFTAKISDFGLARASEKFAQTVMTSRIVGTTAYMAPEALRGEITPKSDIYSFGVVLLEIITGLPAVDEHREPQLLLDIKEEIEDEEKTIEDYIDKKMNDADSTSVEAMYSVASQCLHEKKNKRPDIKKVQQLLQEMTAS

Compound: O=C(COc1cccc2c1C(=O)N(C1CCC(=O)NC1=O)C2=O)NCCCNC(=O)[C@H]1CC[C@H](NC(=O)c2cnc(Nc3ccc4cnccc4n3)cc2NC2CC2)CC1 (stereo partly drawn) [I-7]
THP-1 24 h % IRAK4 Degradation: B (>20-50% degradation)

Compound: O=C1CCC(N2C(=O)c3cccc(NCCOCCOCCOCC(F)CNC(=O)c4cnc(Nc5ccc6cnccc6n5)cc4NC4CC4)c3C2=O)C(=O)N1 (stereo not drawn) [I-49]
THP-1 24 h % IRAK4 Degradation: B (>20-50% degradation)

Compound: COc1cc2c(cc1OCCOCCOCCOCCOCCOCC(=O)N[C@H](C(=O)N1C[C@H](O)C[C@H]1C(=O)NCc1ccc(-c3scnc3C)cc1)C(C)(C)C)ncc1c3ccc(C#N)cc3[nH]c21 [I-203]
THP-1 24 h % IRAK4 Degradation: B (>20-50% degradation)

Compound: O=C(COc1cccc2c1C(=O)N(C1CCC(=O)NC1=O)C2=O)NCCOCCOCCOCC(F)CNC(=O)c1cnc(Nc2ccc3cnccc3n2)cc1NC1CC1 (stereo not drawn) [I-96]
THP-1 24 h % IRAK4 Degradation: C (<20% degradation)

Compound: Cc1ncsc1-c1ccc(CNC(=O)[C@@H]2C[C@@H](O)CN2C(=O)[C@@H](NC(=O)COCCOCCOCCOCCNC(=O)Cn2ccc3c(Nc4nc(N[C@@H]5CCCC[C@@H]5N)cc5[nH]cnc(=O)c45)cccc32)C(C)(C)C)cc1 [I-195]
THP-1 24 h % IRAK4 Degradation: C (<20% degradation)

Compound: COc1cc(Nc2nc(N[C@H]3CCCC[C@H]3N)n3ccnc3c2C(N)=O)cc(OC)c1OCCOCCOCCOCC(=O)N[C@H](C(=O)N1C[C@H](O)C[C@H]1C(=O)NCc1ccc(-c2scnc2C)cc1)C(C)(C)C [I-165]
THP-1 24 h % IRAK4 Degradation: C (<20% degradation)

Compound: O=C1CCC(N2C(=O)c3cccc(NCCOCCOCCOCCOCCOCCOCC(F)CNC(=O)c4cnc(Nc5ccc6cnccc6n5)cc4NC4CC4)c3C2=O)C(=O)N1 (stereo not drawn) [I-51]
THP-1 24 h % IRAK4 Degradation: C (<20% degradation)

Compound: Cc1ncsc1-c1ccc(CNC(=O)[C@@H]2C[C@@H](O)CN2C(=O)[C@H](NC(=O)CCCCCOCCCCCCCNC(=O)[C@H]2CC[C@H](NC(=O)c3cnc(Nc4ccc5cnccc5n4)cc3NC3CC3)CC2)C(C)(C)C)cc1 [I-14]
THP-1 24 h % IRAK4 Degradation: C (<20% degradation)

Compound: O=C1CCC(N2C(=O)c3cccc(NCCOCCOCCOCCOCCNC(=O)[C@H]4CC[C@H](NC(=O)c5cnc(Nc6ccc7cnccc7n6)cc5NC5CC5)CC4)c3C2=O)C(=O)N1 (stereo partly drawn) [I-11]
THP-1 24 h % IRAK4 Degradation: C (<20% degradation)

Compound: O=C(COc1cccc2c1C(=O)N(C1CCC(=O)NC1=O)C2=O)NCCOCCOCCNC(=O)[C@H]1C[C@H](NC(=O)c2cnc(Nc3ccc4cnccc4n3)cc2NC2CC2)C1 (stereo partly drawn) [I-16]
THP-1 24 h % IRAK4 Degradation: C (<20% degradation)

Compound: O=C(COc1cccc2c1C(=O)N(C1CCC(=O)NC1=O)C2=O)NCCCCCOCCOCCOCCCCCNC(=O)[C@H]1CC[C@H](NC(=O)c2cnc(Nc3ccc4cnccc4n3)cc2NC2CC2)CC1 (stereo partly drawn) [I-1]
THP-1 24 h % IRAK4 Degradation: B (>20-50% degradation)

Compound: O=C(COc1cccc2c1C(=O)N(C1CCC(=O)NC1=O)C2=O)NCCOCCOCCOCCOCCOCC(F)CNC(=O)c1cnc(Nc2ccc3cnccc3n2)cc1NC1CC1 (stereo not drawn) [I-97]
THP-1 24 h % IRAK4 Degradation: B (>20-50% degradation)

Compound: Cc1ncsc1-c1ccc(CNC(=O)[C@@H]2C[C@@H](O)CN2C(=O)[C@@H](NC(=O)COCCOCCOCC(F)CNC(=O)c2cnc(Nc3ccc4cnccc4n3)cc2NC2CC2)C(C)(C)C)cc1 (stereo partly drawn) [I-120]
THP-1 24 h % IRAK4 Degradation: C (<20% degradation)

Compound: O=C(COc1cccc2c1C(=O)N(C1CCC(=O)NC1=O)C2=O)NCCOCCOCCOCCOCC(F)CNC(=O)c1cnc(Nc2ccc3cnccc3n2)cc1NC1CC1 (stereo not drawn) [I-98]
THP-1 24 h % IRAK4 Degradation: B (>20-50% degradation)

Compound: CN(CCOCCOCCNc1cccc2c1C(=O)N(C1CCC(=O)NC1=O)C2=O)C(=O)[C@H]1CC[C@H](NC(=O)c2cnc(Nc3ccc4cnccc4n3)cc2NC2CC2)CC1 (stereo partly drawn) [I-40]
THP-1 24 h % IRAK4 Degradation: C (<20% degradation)

Compound: O=C1CCC(N2C(=O)c3cccc(NCCOCCOCCOCCOCCOCC(F)CNC(=O)c4cnc(Nc5ccc6ncsc6c5)cc4NC4CC4)c3C2=O)C(=O)N1 (stereo not drawn) [I-52]
THP-1 24 h % IRAK4 Degradation: C (<20% degradation)

Compound: O=C(COc1cccc2c1C(=O)N(C1CCC(=O)NC1=O)C2=O)NCCCCCOCCOCCCCCNC(=O)[C@H]1CC[C@H](NC(=O)c2cnc(Nc3ccc4cnccc4n3)cc2NC2CC2)CC1 (stereo partly drawn) [I-5]
THP-1 24 h % IRAK4 Degradation: B (>20-50% degradation)

Compound: O=C(COc1cccc2c1C(=O)N(C1CCC(=O)NC1=O)C2=O)NCCCCCOCCCCCNC(=O)[C@H]1CC[C@H](NC(=O)c2cnc(Nc3ccc4cnccc4n3)cc2NC2CC2)CC1 (stereo partly drawn) [I-3]
THP-1 24 h % IRAK4 Degradation: C (<20% degradation)

Compound: O=C1CCC(N2C(=O)c3cccc(NCCOCCNC(=O)[C@H]4CC[C@H](NC(=O)c5cnc(Nc6ccc7cnccc7n6)cc5NC5CC5)CC4)c3C2=O)C(=O)N1 (stereo partly drawn) [I-25]
THP-1 24 h % IRAK4 Degradation: B (>20-50% degradation)

Compound: CC(C)(OCC(=O)NCCOCCOCCNc1cccc2c1C(=O)N(C1CCC(=O)NC1=O)C2=O)C(F)CNC(=O)c1cnc(Nc2ccc3cnccc3n2)cc1NC1CC1 (stereo not drawn) [I-55]
THP-1 24 h % IRAK4 Degradation: C (<20% degradation)
